- procedure text: Pharmacokinetic parameters in vivo, dog
- Set-up: species or system Beagle Dogs
- condition label: Beagle, plasma; Dog, IV 1 mg/kg
assay metric: half-life (h)

INSERT INTO measurements (molecule, assay_metric, value_observed) VALUES
  ('Cn1nc(NS(C)(=O)=O)c2c(Cl)ccc(-n3c([C@H](Cc4cc(F)cc(F)c4)NC(=O)Cn4nc(C(F)F)c5c4C(F)(F)[C@@H]4C[C@H]54)nc4nc(OCCC(C)(F)F)ccc4c3=O)c21 (atropisomer, axis not shown; (P))', 'half-life', 12.4);

====

- procedure text: Subcutaneous in vivo PK experiment in rat
- Parameters: species or system Wistar Han Rats
- condition label: Wistar Han, plasma, sc, subcutaneous injection 20 mg/kg, read-out: apparent half-life of compound in plasma (converted)
assay metric: half-life (days)

INSERT INTO measurements (compound, assay_metric, unit_string, value_observed) VALUES
  ('Cn1nc(NS(C)(=O)=O)c2c(Cl)ccc(-n3c([C@H](Cc4cc(F)cc(F)c4)NC(=O)Cn4nc(C(F)F)c5c4C(F)(F)[C@@H]4C[C@H]54)nc4nc(OCCC(C)(F)F)ccc4c3=O)c21 (atropisomer, axis not shown; (P))', 'half-life', 'days', 50);

====

- procedure text: Pharmacokinetic parameters in vivo, mouse
- Set-up: species or system male CD1 mice
- condition label: male, CD1, plasma, IV 1 mg/kg
assay metric: half-life (h)

INSERT INTO assay_data (compound, assay_metric, value_observed) VALUES
  ('Cn1nc(NS(C)(=O)=O)c2c(Cl)ccc(-n3c([C@H](Cc4cc(F)cc(F)c4)NC(=O)Cn4nc(C(F)F)c5c4C(F)(F)[C@@H]4C[C@H]54)nc4nc(OCCC(C)(F)F)ccc4c3=O)c21 (atropisomer, axis not shown; (P)) [Example 1]', 'half-life', 7.8);

====

- procedure text: Metabolism in human liver microsomes
- Assay type: in vitro ADME
- condition label: pH 7.4, 1 μM compound, 1 mg/mL microsomes, NADPH, 37° C., read-out: Human liver microsome T1/2
assay metric: half-life at 1 μM

INSERT INTO measurements (compound, value_observed) VALUES
  ('Cn1nc(NS(C)(=O)=O)c2c(Cl)ccc(-n3c([C@H](Cc4cc(F)cc(F)c4)NC(=O)Cn4nc(C(F)F)c5c4C(F)(F)[C@@H]4C[C@H]54)nc4nc(OCCC(C)(F)F)ccc4c3=O)c21 (atropisomer, axis not shown; (P)) [Example 1]', '> 2 h');

====

- procedure text: Pharmacokinetic parameters in vivo, monkey
- Set-up: species or system Cynomolgus monkeys
- condition label: cynomolgus monkey, plasma; Monkey, IV 1 mg/kg
assay metric: half-life (h)

INSERT INTO measurements (compound, assay_metric, unit_string, value_observed) VALUES
  ('Cn1nc(NS(C)(=O)=O)c2c(Cl)ccc(-n3c([C@H](Cc4cc(F)cc(F)c4)NC(=O)Cn4nc(C(F)F)c5c4C(F)(F)[C@@H]4C[C@H]54)nc4nc(OCCC(C)(F)F)ccc4c3=O)c21 (atropisomer, axis not shown; (P)) [Example 1]', 'half-life', 'h', 4.2);

====

- procedure text: Pharmacokinetic parameters in vivo, dog
- Parameters: species or system Beagle Dogs
- condition label: Beagle, plasma; Dog, IV 1 mg/kg
assay metric: clearance (mL/min/kg)

INSERT INTO assay_data (compound, assay_metric, unit_string, value_observed) VALUES
  ('Cn1nc(NS(C)(=O)=O)c2c(Cl)ccc(-n3c([C@H](Cc4cc(F)cc(F)c4)NC(=O)Cn4nc(C(F)F)c5c4C(F)(F)[C@@H]4C[C@H]54)nc4nc(OCCC(C)(F)F)ccc4c3=O)c21 (atropisomer, axis not shown; (P))', 'clearance', 'mL/min/kg', 1.16);

Values from patent US20220105096A1
